- TEST DETAILS: Cytotoxicity against human HCT116 cells assessed as growth inhibition after 72 hrs by ATPlite assay
- Assay type: functional, cell-based
- CONDITION LABEL: HCT-116, 72 h
Provide the recorded pIC50 for the entries that follow.
Remember, pIC50 is on a log scale: it is -log10 of the molar concentration.

Quick one: pIC50 for Cc1cccc(C2=CC3=CC(=O)O[C@@]34C[C@@H]2N2CCCC[C@@H]24)c1 ?
6.55

// repeat for O=C1C=C2C=C(c3cccc(Cl)c3)[C@@H]3C[C@@]2(O1)[C@H]1CCCCN31 and report
6.64

// repeat for COc1cccc(C2=CC3=CC(=O)O[C@@]34C[C@@H]2N2CCCC[C@@H]24)c1 and report
6.59

Data origin: ChEMBL document CHEMBL3758124
